B1: Zinc finger homeobox protein 4, residues 2183 to 2238; numbered along this chain, Q86UP3 (parent)
chain: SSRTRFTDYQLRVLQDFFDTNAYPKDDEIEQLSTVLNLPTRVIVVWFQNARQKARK

- Variants of: B1
- assay summary: abundance fitness (aPCA) (normalised: wild type 0, dead -1); higher = more abundant; growth selection in yeast, the domain comes from the species named
- condition notes: Homo sapiens
test readout: abundance fitness
Give the figure only, with no unit attached.

These recorded examples may help you get a feel for the data.
1) SSRTRFTDYQLRVLQDFFDTNAYPKFDEIEQLSTVLNLPTRVIVVWFQNARQKARK : -0.087
2) SSRTRFTDYQLRVLQDFFDTNAYPKLDEIEQLSTVLNLPTRVIVVWFQNARQKARK : -0.257
3) SSRTRFTDYQLRVLQDFFDKNAYPKDDEIEQLSTVLNLPTRVIVVWFQNARQKARK : 0.133
4) SSRTRFTDYQLRHLQDFFDTNAYPKDDEIEQLSTVLNLPTRVIVVWFQNARQKARK : 0.203
5) SSRTRFTDYQLRVLQDFFDTNAYPKDDEIEQLSQVLNLPTRVIVVWFQNARQKARK : -0.128

abundance fitness in this record for SSRTRFTDYQLRVLQDFFDTNAYLKDDEIEQLSTVLNLPTRVIVVWFQNARQKARK : -0.419

abundance fitness in this record for SSRTMFTDYQLRVLQDFFDTNAYPKDDEIEQLSTVLNLPTRVIVVWFQNARQKARK : 0.309

abundance fitness in this record for SSRTRFTDYQLRVLIDFFDTNAYPKDDEIEQLSTVLNLPTRVIVVWFQNARQKARK : -0.141

abundance fitness in this record for SSRTRFTDKQLRVLQDFFDTNAYPKDDEIEQLSTVLNLPTRVIVVWFQNARQKARK : 0.318

abundance fitness in this record for SSRTRFTDYQLRVLQDFFDTNAYPKWDEIEQLSTVLNLPTRVIVVWFQNARQKARK : -0.047

abundance fitness in this record for SSRTRFTDYQLRVLQDFFDTNAYPKDDEIEQLSTVNNLPTRVIVVWFQNARQKARK : -0.801

abundance fitness in this record for SSRTRFTDYQLRVLQDFFDTNAYPKDDEIECLSTVLNLPTRVIVVWFQNARQKARK : -0.221

This collection of values is drawn from the Human Domainome abundance scans (Beltran et al. 2025).
